Assay: Intravenous and buccal pharmacokinetic study in the minipig
Assay type: in vivo
Conditions: male, Göttingen, in vivo, 0.01 mg/kg, buccal 0.010 mg/kg, mean (one animal only), read-out: Plasma concentration Day 1 Hour 16, Mean
Procedure: The test article was compound 10. […] The plasma concentrations of compound 10 were determined after solid phase extraction of the plasma samples followed by high performance liquid chromatography with tandem mass spectrometric detection (LC-MS/MS) using a sample volume of about 100 microL. […]
Counter-ions that a name gives are not always drawn.
measured_attribute: concentration at 16 h (pg/mL)
Answer in pg/mL, number only, no unit symbol.

Look up concentration at 16 h for this compound: CCCN1CCC[C@@H]2Cc3c(ccc(O)c3O)C[C@H]21 [compound 10, hydrobromide] 6.91

###

Test: Intravenous and buccal pharmacokinetic study in the minipig
Assay type: in vivo
Settings: male, Göttingen, in vivo, 0.04 mg/kg, buccal 0.040 mg/kg, mean, read-out: Plasma concentration Day 1 Hour 16, Mean
Structures can show the parent of a compound that is named as a salt.
measured_attribute: concentration at 16 h (ng/mL)
Answer in ng/mL, number only, no unit symbol.

Look up concentration at 16 h for this molecule: CCCN1CCC[C@@H]2Cc3c(ccc(O)c3O)C[C@H]21 [compound 10, hydrobromide] 0.292

###

Experiment: Intravenous and buccal pharmacokinetic study in the minipig
Assay type: in vivo
Conditions: male, Göttingen, in vivo, 0.04 mg/kg, buccal 0.040 mg/kg, read-out: bioavailability, mean values
Where a name gives a salt, the structure may show the parent alone.
measured_attribute: bioavailability

Look up bioavailability for this compound: CCCN1CCC[C@@H]2Cc3c(ccc(O)c3O)C[C@H]21 [compound 10, hydrobromide] 105 to 122%

###

Test: Intravenous and buccal pharmacokinetic study in the minipig
Assay type: in vivo
Conditions: male, Göttingen, in vivo, 0.04 mg/kg, buccal 0.040 mg/kg, mean, read-out: Plasma concentration Day 5 Hour 0.25, Mean
Structures can show the parent of a compound that is named as a salt.
measured_attribute: concentration at 0.25 h
Remember to follow the number with its unit.

Look up concentration at 0.25 h for this compound: CCCN1CCC[C@@H]2Cc3c(ccc(O)c3O)C[C@H]21 [compound 10, hydrobromide] 5.45 ng/mL

###

Experiment: Intravenous and buccal pharmacokinetic study in the minipig
Assay type: in vivo
Conditions: male, Göttingen, in vivo, 0.04 mg/kg, buccal 0.040 mg/kg, individual animals 1-3, read-out: Plasma concentration Day 5 Hour 0.75
Structures can show the parent of a compound that is named as a salt.
measured_attribute: concentration at 0.75 h (ng/mL)
Answer in ng/mL, number only, no unit symbol.

Look up concentration at 0.75 h for this compound: CCCN1CCC[C@@H]2Cc3c(ccc(O)c3O)C[C@H]21 [compound 10, hydrobromide] 15.9

###

Test: Intravenous and buccal pharmacokinetic study in the minipig
Type: in vivo
Conditions: male, Göttingen, in vivo, 0.04 mg/kg, buccal 0.040 mg/kg, individual animals 1-3, read-out: Plasma concentration Day 5 Hour 1
Structures can show the parent of a compound that is named as a salt.
measured_attribute: concentration at 1 h (ng/mL)
Answer in ng/mL, number only, no unit symbol.

Look up concentration at 1 h for this compound: CCCN1CCC[C@@H]2Cc3c(ccc(O)c3O)C[C@H]21 [compound 10, hydrobromide] 11.9
